- ASSAYED TARGET: Fibroblast growth factor 10 (Homo sapiens)
- ASSAY PROTOCOL: compounds binding fibroblast growth factor 10 – biochemical, small-molecule microarray, 635 nm fluorescence, primary screen (AID 1102)
- RUN PARAMETERS: FGF10 binding, fluorescence 635 nm, higher = more signal
ENDPOINT NAME: composite z-score
API note: the answer field is a bare number with no unit suffix.

Illustrative cases are given below, each with its answer.
1. CCCNC(=O)[C@@H]1c2ccccc2C(=O)N(CC23CC4CC(CC(C4)C2)C3)[C@H]1c1ccc(CO)cc1	1.12
2. C=C(COC)/C(=C/C[C@@H](OC(=O)c1ccncc1)c1cccc(OCCO)c1)c1cc(C(=O)OC)ccc1OC	1.62
3. CN(C)C(=O)[C@]1(Cc2ccccc2N=[N+]=[N-])N=C(c2ccc(OCCCO)cc2)O[C@@H]1c1ccccc1CN=[N+]=[N-]	1.38

Now consider a different molecule.
Incoming: Which composite z-score is listed for COc1ccc([Si](C)(C)[C@@H]2[C@@H](CC(=O)N(CCO)Cc3ccccc3)O[C@]3(C(=O)N(Cc4ccc(N5CCOC5=O)cc4)c4ccccc43)[C@H]2C)cc1 ?
Outgoing: 0.472

Provenance of the data: PubChem BioAssay
